FYI, the data here is from the supplement of paper PMC10567573.

B1: BTBD1 (parent)
chain: IVGFGLYGSIHGPTDYQVNIQIIE

Variants of: B1
method description: protein stability index of a GFP-peptide fusion (GPS, HEK-293T) (PSI 1-6); higher = more stable;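 note: lentivirally expressed fusions sorted by FACS into six bins by GFP to DsRed ratio, PSI derived from sequencing read proportions per bin multiplied by bin number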
measurement parameters: c terminus: a fixed tail appended
Output schema: class label derived from protein stability index. Mapping: group A (below 2), group B (2 to below 3), group C (3 or more)

| mutant id | discrete label |
| --- | --- |
| F4M | group B |
| Q17Y | group B |

Any idea which band Y16K is in?
group C

Any idea which band V2P is in?
group A

Any idea which band S9Y is in?
group B
